- Measured on: PAR4 (Homo sapiens (Human), UniProt Q96RI0)
- Sequence (Q96RI0 18-385): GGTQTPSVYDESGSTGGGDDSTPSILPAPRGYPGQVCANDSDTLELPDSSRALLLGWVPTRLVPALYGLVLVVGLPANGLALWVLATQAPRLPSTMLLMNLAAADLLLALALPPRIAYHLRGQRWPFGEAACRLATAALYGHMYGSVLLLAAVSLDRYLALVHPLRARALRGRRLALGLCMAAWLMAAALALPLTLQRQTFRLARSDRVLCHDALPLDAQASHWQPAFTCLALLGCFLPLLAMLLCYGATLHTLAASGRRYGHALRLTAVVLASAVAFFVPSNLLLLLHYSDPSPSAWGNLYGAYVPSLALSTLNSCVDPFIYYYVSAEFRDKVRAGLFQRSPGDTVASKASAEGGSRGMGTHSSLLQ
- Protocol description: Gamma thrombin induced platelet aggregation assay (PRP assay)
- Type: cell-based
- Run parameters: human platelet rich plasma, 96-well microplate
pIC50: −log10 of the molar value.
Assignment: determine reported pIC50 for the given compounds.

Mol: COc1cc(OCc2csc(Nc3ccc(F)c(C)n3)n2)c2cc(-c3cn4nc(C)ccc4n3)oc2c1
Measured on: PAR4 (Homo sapiens (Human), UniProt Q96RI0)
Measured: < 5.52

Mol: COc1cc(OCc2csc(Nc3cc(F)ccc3F)n2)c2cc(-c3cn4nc(C)ccc4n3)oc2c1
Measured on: PAR4 (Homo sapiens (Human), UniProt Q96RI0)
Measured: < 5.52

Please look at the following compound next.
Record COc1cc(OCc2csc(N(C)CCO)n2)c2cc(-c3cn4nc(C)ccc4n3)oc2c1 has PAR4 (Homo sapiens (Human), UniProt Q96RI0) pIC50 equal to < 5.52

###

- Measured on: UniProtKB Q96RI0
- Protocol description: FLIPR assay in PAR4-expressing HEK293 cells (PAR4 antagonist activity, calcium mobilization)
- Assay type: cell-based
- Run parameters: H-Ala-Phe(4-F)-Pro-Gly-Trp-Leu-Val-Lys-Asn-Gly-NH2-induced calcium mobilization
// class assignment uses EC50 with these ranges: interval 1 (below 0.5 nM), interval 2 (0.5 nM to below 1 nM), interval 3 (1 nM or more)

Req: Bin? COc1cc(OCc2csc(C(O)(C3CCCCC3)C(F)(F)F)n2)c2cc(-c3cn4nc(OC)sc4n3)oc2c1 (centres unmarked) [Example 146]
Resp: interval 2

Req: Bin? COc1cc(OCc2csc(N3CCOCC3)n2)c2cc(-c3cn4nc([C@H](C)F)sc4n3)oc2c1 [Example 193]
Resp: interval 2

Req: Bin? COc1cc(OCc2csc(N(C)C(C)C)n2)c2cc(-c3cn4nc(C)ccc4n3)oc2c1 [Example 280]
Resp: interval 3

Req: Bin? COc1nn2cc(-c3cc4c(OCc5csc(C6(F)CCOCC6)n5)cc(Cl)cc4o3)nc2s1 [Example 190]
Resp: interval 1

Req: Bin? COc1cc(OCc2csc(-c3cccc(OC(C)=O)c3)n2)c2cc(-c3cn4nc(C)ccc4n3)oc2c1 [Example 221]
Resp: interval 3

Req: Bin? COc1ccc(C2(c3nc(COc4cc(OC)cc5oc(-c6cn7nc(OC)sc7n6)cc45)cs3)CCOCC2)cc1 [Example 159]
Resp: interval 1

Req: Bin? COc1cc(OCc2csc(N3CCN(S(C)(=O)=O)CC3)n2)c2cc(-c3cn4nc(OC)sc4n3)oc2c1 [Example 100]
Resp: interval 1

Req: Bin? CCN(CCC#N)C(=O)c1ccc(-c2nc(COc3cc(OC)cc4oc(-c5cn6nc(OC)sc6n5)cc34)cs2)cc1 [Example 292]
Resp: interval 1

Req: Bin? COc1cc(OCc2csc(C3(F)CCCCC3)n2)c2cc(-c3cn4nc(OC)sc4n3)oc2c1 [Example 134]
Resp: interval 3

Req: Bin? COc1nn2cc(-c3cc4c(OCc5csc(-c6ccc(Cl)cc6)n5)cc(Cl)cc4o3)nc2s1 [Example 188]
Resp: interval 2

Req: Bin? COc1cc(OCc2csc(-c3cccc(O)c3)n2)c2cc(-c3cn4nc(C)ccc4n3)oc2c1 [Example 222]
Resp: interval 2

Req: Bin? COc1nn2cc(-c3cc4c(OCc5csc(-c6ccc(C(=O)N(C)C)cc6)n5)cc(F)cc4o3)nc2s1 [Example 185]
Resp: interval 1

Req: Bin? COc1cc(OCc2csc(-c3cccnc3F)n2)c2cc(-c3cn4nc(OC)sc4n3)oc2c1 [Example 78]
Resp: interval 1

Req: Bin? COc1cc(OCc2csc(N3CCC(C)CC3)n2)c2cc(-c3cn4nc(C)ccc4n3)oc2c1 [Example 259]
Resp: interval 2

Req: Bin? COc1cc(OCc2csc(C(O)(c3ccccc3)C(F)(F)F)n2)c2cc(-c3cn4nc(OC)sc4n3)oc2c1 (centres unmarked) [Example 137]
Resp: interval 3
